# testSystem: FL-CHK1 (Homo sapiens)
# Construct: C-terminally His-tagged full-length human CHK1 (FL-CHK1); 6xHis (C); made in house; host or cells: baculovirus/insect cells
# Sequence (O14757 1-476): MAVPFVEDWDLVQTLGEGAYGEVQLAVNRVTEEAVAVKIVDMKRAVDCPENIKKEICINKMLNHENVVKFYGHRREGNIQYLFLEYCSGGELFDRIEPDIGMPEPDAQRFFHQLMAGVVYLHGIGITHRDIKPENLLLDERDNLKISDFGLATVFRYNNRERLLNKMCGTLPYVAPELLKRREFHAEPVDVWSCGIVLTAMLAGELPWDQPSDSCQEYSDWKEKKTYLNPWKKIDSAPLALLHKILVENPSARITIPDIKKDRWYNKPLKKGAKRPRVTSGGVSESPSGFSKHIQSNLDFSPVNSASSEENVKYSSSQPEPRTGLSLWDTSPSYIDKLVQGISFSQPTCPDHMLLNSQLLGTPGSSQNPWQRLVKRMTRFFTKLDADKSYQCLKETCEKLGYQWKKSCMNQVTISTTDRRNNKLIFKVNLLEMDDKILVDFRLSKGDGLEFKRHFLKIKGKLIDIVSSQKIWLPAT
# experimentSummary: CHK1 assay
# Assay type: biochemical
# runParameters: 20 μM; combinatorial library compounds
measurementKind: inhibition at 20 µM (%)

(1) COc1ccc(-c2csc(-c3sc(Nc4ccc(S(N)(=O)=O)cc4)nc3N)n2)c(OC)c1
(2) Cc1onc(-c2ccccc2)c1-c1csc(-c2sc(Nc3ccc(N(C)C)cc3)nc2N)n1
(3) Cc1ccc(-c2csc(-c3sc(Nc4ccc(N(C)C)cc4)nc3N)n2)c(C)c1
(4) Cn1cc(-c2csc(-c3sc(Nc4ccc(S(N)(=O)=O)cc4)nc3N)n2)cc1C(=O)C(Cl)(Cl)Cl
Order required: smallest reported inhibition at 20 µM first, largest last, for all compounds above. # output: labels, in the requested order
1, 3, 4, 2
(1: -3.9%, 3: -0.9%, 4: 3.3%, 2: 8.1%)

* * *

# Test system: lung cancer cells (line MV522)
# experimentSummary: Cancer cell proliferation (MV522) assay
# Type: cell-based
# runParameters: MV522, Table 2
measurementKind: IC50 (µM)

COc1cc(Nc2nc(N)c(-c3nc(-c4cc(O)ccc4Br)cs3)s2)cc(OC)c1OC: 7.5
COc1cc(Nc2nc(N)c(-c3nc(-c4cccc(O)c4)no3)s2)cc(OC)c1OC: 5.4

* * *

# testSystem: CHK1 (Homo sapiens)
# experimentSummary: CHK1 high-throughput screening
# Type: biochemical
# runParameters: read-out: % inhibition @ 20 μM, Table 4, repeated entries per example
measurementKind: inhibition at 20 µM (%)

Answered cases to consult:
Nc1nc(Nc2ccc(S(N)(=O)=O)cc2)sc1-c1nc(-c2ccc(Cl)c(O)c2)cs1 [A(69)]: 4.8
CCOC(=O)c1cccc(Nc2nc(N)c(-c3nc(-c4cccc(NC(=O)c5ccccc5)c4)cs3)s2)c1 [A(40)]: 1
CCCNc1nc(N)c(-c2nc(-c3cccc(O)c3)cs2)s1 [A(29)]: 7.1
CC(=O)Nc1cc(Nc2nc(N)c(-c3nc(-c4cccc(NC(=O)c5ccccc5)c4)cs3)s2)ccc1C [A(48)]: 1.3
C=CCOc1cc(O)cc(-c2csc(-c3sc(Nc4ccc(S(N)(=O)=O)cc4)nc3N)n2)c1 [A(62)]: 7.4
COc1cc(Nc2nc(N)c(-c3nc(-c4cc(O)ccc4O)cs3)s2)cc(OC)c1OC [A(25)]: 19.7
Nc1nc(Nc2ccc([N+](=O)[O-])cc2)sc1-c1nc(-c2cccc(NC(=O)c3ccccc3)c2)cs1 [A(56)]: -2.9
Nc1nc(Nc2cccnc2)sc1-c1nc(-c2cccc(NC(=O)c3ccccc3)c2)cs1 [A(53)]: 4
Nc1nc(NCCc2ccccc2)sc1-c1nc(-c2cccc(NC(=O)c3ccccc3)c2)cs1 [A(38)]: 9.1
CCOC(=O)c1nc(-c2sc(Nc3ccc(S(N)(=O)=O)cc3)nc2N)sc1Cc1ccccc1 [A(73)]: 14.3

(P) CCN(CC)CCCNc1nc(N)c(-c2nc(-c3cccc(NC(=O)c4ccccc4)c3)cs2)s1 [A(37)]
(Q) COc1cc(O)cc(-c2csc(-c3sc(Nc4cc(OC)c(OC)c(OC)c4)nc3N)n2)c1 [A(19)]
Between these two entries, P and Q , state which has the higher inhibition at 20 µM. Answer by stating the label of the chosen item.
Q
(Q: 78.5%, P: 16%)

* * *

# testSystem: phosphorylated VEGF-R2Δ50 (FLVK-P) (Homo sapiens, UniProt P35968, DEL940-989/E990V)
# Construct: VEGF-R2Δ50 contains residues 806-939 and 990-1171; made in house; host or cells: baculovirus/insect cells
# Sequence (P35968 with tags, fused parts or gaps DEL940-989/E990V limits assumed): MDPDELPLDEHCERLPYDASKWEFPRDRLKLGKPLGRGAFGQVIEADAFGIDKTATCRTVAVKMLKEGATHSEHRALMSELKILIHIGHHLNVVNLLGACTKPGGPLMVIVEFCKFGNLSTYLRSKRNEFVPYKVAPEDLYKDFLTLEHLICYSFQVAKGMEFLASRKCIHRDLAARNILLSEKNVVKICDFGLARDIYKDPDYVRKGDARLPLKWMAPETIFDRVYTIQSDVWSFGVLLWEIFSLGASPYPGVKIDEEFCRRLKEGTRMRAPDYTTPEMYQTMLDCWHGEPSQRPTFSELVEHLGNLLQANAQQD
# experimentSummary: VEGF-R2 coupled spectrophotometric (FLVK-P) assay
# Assay type: biochemical
# runParameters: read-out: VEGF % inhibition at 20 μM, 20 μM; combinatorial library compounds
measurementKind: inhibition at 20 µM (%)

Answered cases to consult:
Cc1ccc(-c2csc(-c3sc(Nc4ccc(S(N)(=O)=O)cc4)nc3N)n2)cc1 [drawing 395]: 33
CN(C)c1ccc(Nc2nc(N)c(-c3nc(-c4ccc(C(F)(F)F)cc4)cs3)s2)cc1: 5
COc1cc(OC)c(-c2csc(-c3sc(Nc4ccc(N(C)C)cc4)nc3N)n2)c(O)c1Cl: 36

(A) Nc1nc(Nc2ccc(S(N)(=O)=O)cc2)sc1-c1nc(-c2cc(-c3ccccc3)no2)cs1
(B) Nc1nc(Nc2ccc(S(N)(=O)=O)cc2)sc1-c1nc(-c2ccccc2OC(=O)c2ccccc2)cs1
Between these two entries, A and B , state which has the higher inhibition at 20 µM. Answer by stating the label of the chosen item.
B

* * *

measurementKind: melting point

Answered cases to consult:
C=CCOc1cc(O)cc(-c2csc(-c3sc(Nc4ccc(S(N)(=O)=O)cc4)nc3N)n2)c1 [A(62)]: 200 to 202 °C
CON(C)C(=O)c1csc(-c2sc(Nc3ccc(S(N)(=O)=O)cc3)nc2N)n1 [N(3)]: 195 to 198 °C
Nc1nc(Nc2ccc(S(N)(=O)=O)cc2)sc1-c1nc(-c2ccccc2)cs1 [A(1)]: 233 to 235 °C (dec.)
COc1cc(Nc2nc(N)c(-c3nc(-c4ccc(F)cc4F)cs3)s2)cc(OC)c1OC [A(9)]: 180 to 183 °C (dec.)
Nc1nc(Nc2ccc(S(N)(=O)=O)cc2)sc1-c1nc(-c2cccc(O)c2)cs1 [A(16)]: 205 to 209 °C (dec.)
Nc1nc(Nc2ccc(S(N)(=O)=O)cc2)sc1-c1nc(/C=C/C=C/c2ccccc2)cs1 [A(66)]: 193 to 195 °C (dec.)
Nc1nc(Nc2ccc(S(N)(=O)=O)cc2)sc1-c1nc(C(=O)c2ccccc2)cs1 [A(67)]: 255 to 260 °C (dec.)
COc1cc(Nc2nc(N)c(-c3nc(-c4cc(O)ccc4O)cs3)s2)cc(OC)c1OC [A(25)]: 208 to 212 °C (dec.)

The recorded melting point for entry Nc1nc(Nc2ccc(S(N)(=O)=O)cc2)sc1-c1nc(/C=C/c2ccc(O)cc2)cs1 [A(64)] equals 138 to 140 °C (dec.)

The recorded melting point for entry Cc1c(F)cc(-c2csc(-c3sc(Nc4ccc(S(N)(=O)=O)cc4)nc3N)n2)cc1Cl [A(7)] equals 208 to 212 °C

The recorded melting point for entry COc1ccc(-c2csc(-c3sc(Nc4ccc(S(N)(=O)=O)cc4)nc3N)n2)cc1 [A(2)] equals 195 to 198 °C

The recorded melting point for entry COc1cc(O)cc(-c2csc(-c3sc(Nc4cc(OC)c(OC)c(OC)c4)nc3N)n2)c1 [A(19)] equals 208 to 210 °C

The recorded melting point for entry Nc1nc(Nc2ccc(S(N)(=O)=O)cc2)sc1-c1nc(-c2ccc(Cl)cc2Cl)cs1 [A(6)] equals 173 to 175 °C (dec.)

The recorded melting point for entry Cc1nc(-c2sc(Nc3ccc(S(N)(=O)=O)cc3)nc2N)sc1Cc1ccc(F)cc1 [A(15)] equals 130 to 135 °C (dec.)

The recorded melting point for entry COc1cc(Nc2nc(N)c(-c3nc(-c4ccccc4O)cs3)s2)cc(OC)c1OC [A(23)] equals 186 to 190 °C (dec.)

The recorded melting point for entry Nc1nc(Nc2ccc(S(N)(=O)=O)cc2)sc1-c1nc(-c2ccc(F)cc2F)cs1 [A(4)] equals 233 to 238 °C

The recorded melting point for entry COc1cc(Nc2nc(N)c(-c3nc(-c4cc(O)ccc4Br)cs3)s2)cc(OC)c1OC [A(26)] equals 214 to 216 °C

The recorded melting point for entry Nc1nc(N)c(-c2nc(-c3cccc(NC(=O)c4ccccc4)c3)cs2)s1 [E(2)] equals 159 to 163 °C (dec.)

* * *

// inhibition at 0.01 µM lookup, one value per entry
# Test system: human umbilical vein endothelial cells (HUVEC)
# experimentSummary: HUVEC proliferation assay
# Format: cell-based
# runParameters: Homo sapiens, HUVEC, Table II screening results; 10 nM; crude combinatorial amide library; read-out: % inhibition @ 10 nM
Supply the numeric figure in %, leaving out any unit text.

Answered cases to consult:
CNC(=O)Nc1nc(N)c(-c2nc(-c3cccc(NC(=O)C4CC5CC(O)C4C5)c3)cs2)s1 (stereo not drawn): 19
CNC(=O)Nc1nc(N)c(-c2nc(-c3cccc(NC(=O)c4cccc5cc[nH]c45)c3)cs2)s1: 60
CNC(=O)Nc1nc(N)c(-c2nc(-c3cccc(NC(=O)[C@@H]4C[C@H](C)[C@H](C)[C@@H]4C)c3)cs2)s1: -21
CCn1nc(C)cc1C(=O)Nc1cccc(-c2csc(-c3sc(NC(=O)NC)nc3N)n2)c1: 41
CNC(=O)Nc1nc(N)c(-c2nc(-c3cccc(NC(=O)c4ccc(C(C)(C)C)o4)c3)cs2)s1: 69

The recorded inhibition at 0.01 µM for entry CNC(=O)Nc1nc(N)c(-c2nc(-c3cccc(NC(=O)/C=C/C4C[C@H]5C=C[C@@H]4C5)c3)cs2)s1 (stereo partly drawn) equals 50

The recorded inhibition at 0.01 µM for entry CNC(=O)Nc1nc(N)c(-c2nc(-c3cccc(NC(=O)C4CCCN4C(C)=O)c3)cs2)s1 (stereo not drawn) equals 27

The recorded inhibition at 0.01 µM for entry C=CCC(=O)Nc1cccc(-c2csc(-c3sc(NC(=O)NC)nc3N)n2)c1 equals -13

The recorded inhibition at 0.01 µM for entry CCc1ccccc1C(=O)Nc1cccc(-c2csc(-c3sc(NC(=O)NC)nc3N)n2)c1 equals 106

Where these numbers come from: patent US6620828B2
